Target of assay: Finger-2 Subsite GTG
Assay name: Finger 2 variant affinity (Table 5)
Assay type: binding
Quantity: Kd

> print(dat)
                                  substance  quantity  value.measured
1  pmGTG: finger 2 variant refined by mutagenesis, helix SRSDELVR        Kd           15 nM

These entries and their values trace back to patent US7442784B2.
